Tested on: BEAS-2B
protocol_notes: Antiproliferative activity against human BEAS2B cells after 72 hrs by MTT assay
Format: cell-based
assay_conditions: beas-2b, 72 h
# Lookup of reported LC50 keyed by entry

As a guide, the following entries are already answered.
1) CSc1ccc(NC(=O)c2ccc3n[se]nc3c2)cc1 ... > 100 µM
2) O=c1c2ccccc2[se]n1CCn1[se]c2ccccc2c1=O [ETHASELEN] ... 40 µM

Measured LC50 (BEAS-2B), entry C[Se]c1ccc(NC(=O)c2ccc3n[se]nc3c2)cc1 : > 100 µM

Measured LC50 (BEAS-2B), entry O=c1c2ccccc2[se]n1-c1ccccc1 [EBSELEN] : > 100 µM

Measured LC50 (BEAS-2B), entry COc1cccc2c1C(=O)c1c(O)c3c(c(O)c1C2=O)C[C@@](O)(C(=O)CO)C[C@@H]3O[C@H]1C[C@H](N)[C@H](O)[C@H](C)O1 [DOXORUBICIN] : 1.8 µM

Measured LC50 (BEAS-2B), entry COc1ccc(NC(=O)c2ccc3n[se]nc3c2)cc1 : > 100 µM

Measured LC50 (BEAS-2B), entry O=C(Nc1nc2ccccc2s1)c1ccc2n[se]nc2c1 : > 100 µM

Data provenance: ChEMBL document CHEMBL4270585
